meta.source: patent US20240327534A1

- TARGET OR SYSTEM: T1, human BCMA protein (human, UniProt Q02223 1-54, limits assumed)
- T1 sequence: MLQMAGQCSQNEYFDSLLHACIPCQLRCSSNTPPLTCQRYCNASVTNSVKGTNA
- ASSAY: affinity to human BCMA protein, method not stated
pKd: −log10 of the molar value.
Lab note: compare pKd against 8. Equal or greater, write 1.0. Smaller, write 0.0.

| BINDER | CAT |
| --- | --- |
| BCMA targeting trispecific protein 01E10 (other, trispecific; not shown: the C-terminal 6xHis tag follows those domains and is left out) VHH: EVQLVESGGGLVQPGRSLTLSCAASTNIESISPMGWYRQAPGKQRELVAAIHGKSTLYADSVKGRFTISRDNAKNSIYLQMNSLRPEDTALYYCNKVPWGDYHPRRVYWGQGTQVTVSS | 0.0 |
| BCMA targeting trispecific protein 02G07 (other, not shown: large carriers; small tags and cut ends, trispecific) VHH: EVQLVESGGGLVQPGRSLTLSCAASTNIFSITPMGWYRQAPGKQRELVAAIHGESTLYADSVKGRFTISRDNAKNSIYLQMNSLRPEDTALYYCNKVPWGDYHPRDVYWGQGTQVTVSS | 0.0 |
| BCMA targeting trispecific protein 01H04 (other, trispecific; not shown: anti-albumin domain, anti-CD3 domain and the linkers of the trispecific (TriTAC) format) VHH: EVQLVESGGGLVQPGRSLTLSCAASTNIFSKSPMGWYRQAPGKQRELVAAIHGQSTLYADSVKGRFTISRDNAKNSIYLQMNSLRPEDTALYYCNKVPWGDYHPRNVTWGQGTQVTVSS | 0.0 |
| BCMA targeting trispecific protein 253BH10 (other, not shown: large carriers; small tags and cut ends, trispecific; described as a molecule with the parental CDRs; also called BH253) VHH: QVQLVESGGGLVQPGESLRLSCAASTNIFSISPMGWYRQAPGKQRELVAAIHGFSTLYADSVKGRFTISRDNAKNTIYLQMNSLKPEDTAVYYCNKVPWGDYHPRNVYWGQGTQVTVSS | 0.0 |
| BCMA targeting trispecific protein 02H05 (other, trispecific; not shown: The C-terminal 6xHis tag is left out because it follows these missing domains) VHH: EVQLVESGGGLVQPGRSLTLSCAASTNQFSISPMGWYRQAPGKQRELVAAIHGKSTLYADSVKGRFTISRDNAKNSIYLQMNSLRPEDTALYYCNKVPWGDYHPRNVVWGQGTQVTVSS | 0.0 |
| BCMA targeting trispecific protein 01F07 (other, not shown: large carriers; small tags and cut ends, trispecific; also called 01F07 TriTAC) VHH: EVQLVESGGGLVQPGRSLTLSCAASTNIFSTSPMGWYRQAPGKQRELVAAIHGFSTIYADSVKGRFTISRDNAKNSIYLQMNSLRPEDTALYYCNKVPWGDYHPGNVYWGQGTQVTVSS | 1.0 |
